From: the Human Domainome abundance scans (Beltran et al. 2025)

B1: Tyrosine-protein kinase Lck, residues 63 to 120; numbered along this chain, P06239 (parent)
chain: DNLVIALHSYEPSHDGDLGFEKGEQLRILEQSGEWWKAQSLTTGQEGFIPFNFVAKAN

- Variants of: B1
- assay: abundance fitness (aPCA) (normalised: wild type 0, dead -1); higher = more abundant; growth selection in yeast, the domain comes from the species named
- condition.summary: Homo sapiens
Cut-off -0.3 on abundance fitness, inclusive. At or above means t; below means f.

Input line: For this variant, is measured abundance fitness -0.3 or higher? G16K
Output line: f

Input line: D15K ?
Output line: t

Input line: Further, for E46G ?
Output line: f

Input line: Next up: L18K
Output line: f

Input line: How about Y10R ?
Output line: t

Input line: Thanks! And I49G ?
Output line: f

Input line: Now consider H14K and answer again.
Output line: t

Input line: Another variant to look at: F20T
Output line: f

Input line: Param item: G33L
Output line: f

Input line: Proceed to G47I
Output line: f

Input line: Also need N2Q , thanks.
Output line: t

Input line: E34C , same question.
Output line: t

Input line: Similarly, G33Y ?
Output line: f

Input line: Now consider F53H .
Output line: t
